Just for reference, patent US11524012B1 is where these values come from.

Assay Protocol: Toxicokinetics in rat toxicity study (IV infusion)
Assay type: in vivo
Condition Info: plasma; rat, 1 hour IV infusion, 10 mg/kg/dose, Female, Day 1 (first dose); read-out: T1/2 (converted)
Experimental: Rats: Pharmacokinetic properties of Compound I were evaluated in a rat toxicity study across a range of IV doses: 5, 10, and 20 mg/kg/dose administered as ready-to-use formulation (see Example 1). Compound I was administered by intravenous infusion via a catheter placed into the lateral tail vein once per week over a period of 1 hour on Days 1, 8, and 15. […] The TK parameters were determined for Compound I from the mean plasma concentrations per gender and group, using a non-compartmental method.
Measured Property: half-life (h)

[
  {
    "Smiles": "Cc1cnc(CNC(=O)c2c(=O)c3ccc(N4CCCN(C)CC4)nc3n3c2sc2ccccc23)cn1",
    "Measured Property": "half-life",
    "Endpoint Value": 7.6
  }
]

====

Assay Protocol: Toxicokinetics in rat toxicity study (IV infusion)
Format: in vivo
Condition Info: plasma; rat, 1 hour IV infusion, 5 mg/kg/dose, Male, Day 1 (first dose)

[
  {
    "Smiles": "Cc1cnc(CNC(=O)c2c(=O)c3ccc(N4CCCN(C)CC4)nc3n3c2sc2ccccc23)cn1",
    "Tmax": "1 h"
  }
]

====

Tested on: various cancer cell lines
Assay Protocol: Cell viability by Alamar Blue assay
Type: cell-based
Condition Info: Homo sapiens, MDA-MB-453, MDA-MB-453, Breast
Procedure: The effect of Compound I on cell viability was assessed by Alamar Blue assay of metabolic activity in various cancer cell lines.
Measured Property: EC50 (nM)

[
  {
    "Smiles": "Cc1cnc(CNC(=O)c2c(=O)c3ccc(N4CCCN(C)CC4)nc3n3c2sc2ccccc23)cn1",
    "Measured On": "various cancer cell lines",
    "Measured Property": "EC50",
    "Unit Of Measure": "nM",
    "Endpoint Value": 140
  }
]
